Here's a batch of compounds along with measured AC50 for Muscarinic acetylcholine receptor M3 (Homo sapiens, UniProt P20309).

Record CCCC(CCC)C(N)=O [VALPROMIDE] has Muscarinic acetylcholine receptor M3 (Homo sapiens, UniProt P20309) AC50 equal to > 30 µM

The measured AC50 that CCC1(c2ccccc2)CCC(=O)NC1=O (stereo not drawn) [GLUTETHIMIDE] showed for Muscarinic acetylcholine receptor M3 (Homo sapiens, UniProt P20309) is > 30 µM

Tested on Muscarinic acetylcholine receptor M3 (Homo sapiens, UniProt P20309), the item CC(=O)O[C@H](CC(=O)[O-])C[N+](C)(C)C showed AC50 equal to > 30 µM

Test item C[C@@H](Oc1cc(-c2cnn(C3CCNCC3)c2)cnc1N)c1c(Cl)ccc(F)c1Cl ; Muscarinic acetylcholine receptor M3 (Homo sapiens, UniProt P20309); reported AC50 was > 30 µM

Hey, Muscarinic acetylcholine receptor M3 (Homo sapiens, UniProt P20309) data for C/C(=C\C(=O)OCCCCCCCCC(=O)O)C[C@@H]1OC[C@H](C[C@@H]2O[C@H]2[C@@H](C)[C@H](C)O)[C@@H](O)[C@H]1O : AC50 came out at > 30 µM

Summary line: C=C[C@@]1(C)CC(=O)[C@]2(O)[C@@]3(C)[C@@H](O)CCC(C)(C)[C@@H]3[C@H](O)[C@H](OC(C)=O)[C@@]2(C)O1 , Muscarinic acetylcholine receptor M3 (Homo sapiens, UniProt P20309), reported AC50 = > 30 µM

// AC50 (Muscarinic acetylcholine receptor M3 (Homo sapiens, UniProt P20309)) for CCOC(=O)c1cncn1[C@H](C)c1ccccc1 [ETOMIDATE] = > 30 µM

Here CN(C)CCc1c[nH]c2ccc(Cn3cncn3)cc12 was tested on Muscarinic acetylcholine receptor M3 (Homo sapiens, UniProt P20309), and its AC50 came to > 30 µM

Item C#C[C@]1(O)CC[C@H]2[C@@H]3CCC4=CC(=O)CC[C@@H]4[C@H]3C(=C)C[C@@]21CC ; assay system Muscarinic acetylcholine receptor M3 (Homo sapiens, UniProt P20309); AC50 reported as > 30 µM

// AC50 (Muscarinic acetylcholine receptor M3 (Homo sapiens, UniProt P20309)) for O=[N+]([O-])c1ccc(O)c2ncccc12 = 7.6 µM

Lab entry: Muscarinic acetylcholine receptor M3 (Homo sapiens, UniProt P20309) assay, compound Cc1ncc2n1-c1ccc(Cl)cc1C(c1ccccc1F)=NC2 , AC50 = > 30 µM

Record CC(S)C(=O)NCC(=O)O (stereo not drawn) ; system Muscarinic acetylcholine receptor M3 (Homo sapiens, UniProt P20309); AC50 = > 30 µM

Record CCC(C)C(CC)C(N)=O (stereo not drawn) [VALNOCTAMIDE] has Muscarinic acetylcholine receptor M3 (Homo sapiens, UniProt P20309) AC50 equal to > 30 µM

Let me check: C[C@]12C=CC(=O)N[C@@H]1CC[C@@H]1[C@@H]2CC[C@]2(C)[C@@H](C(=O)Nc3cc(C(F)(F)F)ccc3C(F)(F)F)CC[C@@H]12 [DUTASTERIDE] , system Muscarinic acetylcholine receptor M3 (Homo sapiens, UniProt P20309), measured AC50 is > 30 µM

Let me check: CCN(CC)C(=O)Nc1ccc(OCC(O)CNC(C)(C)C)c(C(C)=O)c1 (stereo not drawn) , system Muscarinic acetylcholine receptor M3 (Homo sapiens, UniProt P20309), measured AC50 is > 30 µM

# COc1ccc2nc3cc(Cl)ccc3c(Nc3cc(CN4CCCC4)c(O)c(CN4CCCC4)c3)c2n1 with Muscarinic acetylcholine receptor M3 (Homo sapiens, UniProt P20309): AC50 is 25 µM

Item: COc1ccc(CC2c3cc(OC)c(OC)cc3CC[N+]2(C)CCC(=O)OCCCCCOC(=O)CC[N+]2(C)CCc3cc(OC)c(OC)cc3C2Cc2ccc(OC)c(OC)c2)cc1OC (stereo not drawn) | System: Muscarinic acetylcholine receptor M3 (Homo sapiens, UniProt P20309) | AC50: > 30 µM

Field AC50 (Muscarinic acetylcholine receptor M3 (Homo sapiens, UniProt P20309)), entry C[C@]12CC[C@@H]3c4ccc(O)cc4C[C@@H](CCCCCCCCC[S+]([O-])CCCC(F)(F)C(F)(F)F)[C@H]3[C@@H]1CC[C@@H]2O (stereo partly drawn) : > 30 µM

Case CC1=C(C)C(=O)C(C(CCCCCC(=O)O)c2ccccc2)=C(C)C1=O (stereo not drawn) , Muscarinic acetylcholine receptor M3 (Homo sapiens, UniProt P20309), AC50 recorded as > 30 µM

The compound C=CCNc1nc(NCC=C)nc(N2CCN(C(c3ccc(F)cc3)c3ccc(F)cc3)CC2)n1 , when measured on Muscarinic acetylcholine receptor M3 (Homo sapiens, UniProt P20309), yielded AC50 of > 30 µM

* * *

# tgt: Prostaglandin G/H synthase 1 (Rattus norvegicus, UniProt Q63921)
# Sequence (Q63921 whole entry): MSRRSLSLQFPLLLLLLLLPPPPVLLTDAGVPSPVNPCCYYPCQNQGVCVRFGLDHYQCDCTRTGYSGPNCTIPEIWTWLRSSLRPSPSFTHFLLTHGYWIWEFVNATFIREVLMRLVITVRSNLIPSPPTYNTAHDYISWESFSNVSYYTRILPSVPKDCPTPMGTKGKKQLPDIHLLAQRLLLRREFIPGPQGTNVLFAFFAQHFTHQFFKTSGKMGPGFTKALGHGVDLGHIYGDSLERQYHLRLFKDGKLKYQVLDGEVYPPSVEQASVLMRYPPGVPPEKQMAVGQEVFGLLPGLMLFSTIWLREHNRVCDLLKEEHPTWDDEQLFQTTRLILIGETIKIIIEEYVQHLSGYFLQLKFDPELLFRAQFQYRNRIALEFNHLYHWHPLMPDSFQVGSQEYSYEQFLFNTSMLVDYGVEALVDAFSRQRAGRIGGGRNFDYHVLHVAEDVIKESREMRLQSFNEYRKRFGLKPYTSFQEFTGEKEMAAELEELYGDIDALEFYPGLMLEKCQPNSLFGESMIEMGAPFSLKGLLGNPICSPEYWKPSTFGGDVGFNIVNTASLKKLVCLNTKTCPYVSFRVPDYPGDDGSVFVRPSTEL
# Type: functional
property-measured: AC50 (µM)
Report only the number, with the unit µM understood.

These recorded examples may help you get a feel for the data.
COc1ccc(CC2c3cc(OC)c(OC)cc3CC[N+]2(C)CCC(=O)OCCCCCOC(=O)CC[N+]2(C)CCc3cc(OC)c(OC)cc3C2Cc2ccc(OC)c(OC)c2)cc1OC (stereo unspecified)    18.9
CC(C)N(CCC(C(N)=O)(c1ccccc1)c1ccccn1)C(C)C (stereo unspecified) [DISOPYRAMIDE]    29.7

Below: the item to evaluate.
Record Clc1ccc(C(Cn2ccnc2)OCc2ccsc2Cl)c(Cl)c1 (stereo unspecified) , field AC50: 14

* * *

Please consider the recorded AC50 for UniProtKB P30518 in what follows.
Sequence (P30518 whole entry): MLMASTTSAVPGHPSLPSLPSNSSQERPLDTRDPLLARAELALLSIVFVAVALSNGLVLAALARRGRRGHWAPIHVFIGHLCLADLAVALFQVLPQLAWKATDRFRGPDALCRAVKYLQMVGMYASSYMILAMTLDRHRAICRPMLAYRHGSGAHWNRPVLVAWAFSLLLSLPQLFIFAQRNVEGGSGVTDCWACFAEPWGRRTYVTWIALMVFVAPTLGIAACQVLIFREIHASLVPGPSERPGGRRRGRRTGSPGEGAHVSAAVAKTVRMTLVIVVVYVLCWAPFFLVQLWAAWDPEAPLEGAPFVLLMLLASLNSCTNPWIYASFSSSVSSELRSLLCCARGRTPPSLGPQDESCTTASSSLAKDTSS

Value of measured AC50 for the entry CC(=O)[C@]1(O)Cc2c(O)c3c(c(O)c2[C@@H](O[C@H]2C[C@H](N)[C@H](O)[C@H](C)O2)C1)C(=O)c1ccccc1C3=O : > 10 µM

Value of AC50 reported for the molecule OC1(c2ccc(Cl)cc2)c2ccccc2C2=NCCN21 (stereo unspecified) is > 30 µM

* * *

// endpoint AC50 / system Mu-type opioid receptor (Homo sapiens); note: assay procedure not described here

Known results for compounds:
CC[C@H](C)C[C@H](C)CCCCCCCCC(=O)N[C@H]1C[C@@H](O)[C@@H](NCCN)NC(=O)[C@@H]2[C@@H](O)CCN2C(=O)[C@H]([C@H](O)CCN)NC(=O)[C@H]([C@H](O)[C@@H](O)c2ccc(O)cc2)NC(=O)[C@@H]2C[C@@H](O)CN2C(=O)[C@H]([C@@H](C)O)NC1=O [CASPOFUNGIN]    5.12 µM
OC[C@@H](O)[C@@H](O)[C@H](O)[C@@H](O)CO [SORBITOL]    > 30 µM
O=C(O)CO [GLYCOLIC ACID]    > 30 µM
OC[C@H]1O[C@@H](c2ccc(F)c(Cc3cc4ccccc4s3)c2)[C@H](O)[C@@H](O)[C@@H]1O [IPRAGLIFLOZIN]    > 30 µM
CN1C(=O)/C(=N\NC(N)=S)c2ccccc21 [METHISAZONE]    > 30 µM

For reference, reported AC50 for NC(=O)OCC(O)COc1ccc(Cl)cc1 (centres undefined) [CHLORPHENESIN CARBAMATE] stands at > 30 µM

Query O=[N+]([O-])c1ccc(O)c2ncccc12 [NITROXOLINE] yields AC50 of > 30 µM

Query CC(CCc1ccccc1)NCC(O)c1ccc(O)c(C(N)=O)c1 (centres undefined) [LABETALOL] yields AC50 of 2.42 µM

// C[C@H](Cc1cc2c(c(C(N)=O)c1)N(CCCO)CC2)NCCOc1ccccc1OCC(F)(F)F [SILODOSIN] : AC50 value = 3.34 µM

* * *

Item-by-item account of AC50
# tgt: 5-hydroxytryptamine receptor 2B (Homo sapiens)
# Sequence (P41595 whole entry): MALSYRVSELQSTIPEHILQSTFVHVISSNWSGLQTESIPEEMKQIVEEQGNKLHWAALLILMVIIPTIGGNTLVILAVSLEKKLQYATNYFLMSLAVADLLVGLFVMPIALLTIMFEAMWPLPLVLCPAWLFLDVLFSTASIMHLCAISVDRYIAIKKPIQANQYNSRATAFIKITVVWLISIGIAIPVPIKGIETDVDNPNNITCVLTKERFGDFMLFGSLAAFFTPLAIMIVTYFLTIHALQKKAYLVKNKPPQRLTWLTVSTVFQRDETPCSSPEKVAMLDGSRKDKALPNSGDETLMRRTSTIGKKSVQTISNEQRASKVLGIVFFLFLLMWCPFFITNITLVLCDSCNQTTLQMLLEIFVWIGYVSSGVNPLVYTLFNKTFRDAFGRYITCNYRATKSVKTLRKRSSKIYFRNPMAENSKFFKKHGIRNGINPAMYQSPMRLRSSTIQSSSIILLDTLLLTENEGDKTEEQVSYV
# Assay type: functional, cell-based

CCN(CC)CCN1C(=O)CN=C(c2ccccc2F)c2cc(Cl)ccc21    > 10 µM
C/N=C(\NC)NCc1ccccc1    > 30 µM
C[C@]12CC[C@@H]3c4ccc(O)cc4C[C@@H](CCCCCCCCC[S+]([O-])CCCC(F)(F)C(F)(F)F)[C@H]3[C@@H]1CC[C@@H]2O (stereo partly drawn)    > 30 µM
COc1ccc(CC2c3cc(OC)c(OC)cc3CC[N+]2(C)CCC(=O)OCCCCCOC(=O)CC[N+]2(C)CCc3cc(OC)c(OC)cc3C2Cc2ccc(OC)c(OC)c2)cc1OC (stereo not drawn)    > 30 µM
Nc1ncn([C@H]2C[C@H](O)[C@@H](CO)O2)c(=O)n1    > 30 µM
COc1cc2c(cc1OC)C(CCc1ccc(Cl)cc1)N(C)CC2 (stereo not drawn)    > 10 µM
O=C1CN=C(c2ccccc2)c2cc([N+](=O)[O-])ccc2N1    > 10 µM

Turning to the following molecule.
Kindly note the recorded AC50 for Nc1ccc(S(=O)(=O)Nc2nccs2)cc1 , which is > 10 µM
